Would you kindly list Binding of serum 1a to linear peptides of protein X1 of SARS-CoV Urbani for each of these sequences?
- System: antibodies in sera from SARS patients (sera 1a, 1b, 2, 6, 37, 62, London, SARS-yellow, SARS-green)
- Type: binding, human
Give bare numbers.

A selection of reference data follows.
> print(dat)
           sequence  measured.value
 1  GFQFICNLLLLFVTI             0.6
 2  LFMRFFTLGSITAQP             0.8
 3  KDYVVVHGYFTEVYY             0.7
 4  NLLLLFVTIYSHLLL             0.7
 5  IYSHLLLVAAGMEAQ             0.6
 6  LLVAAGMEAQFLYLY             0.8
 7  LLLLFVTIYSHLLLV             0.7
 8  ALNKRWQLALYKGFQ             0.7
 9  MEAQFLYLYALIYFL             0.7
10  EVYYQLESTQITTDT             0.7

Q) Find the recorded Binding of serum 1a to linear peptides of protein X1 of SARS-CoV Urbani belonging to WLVIGVAFLAVFQSA and report it.
A) 0.6

Source of measurements: patent US20070128217A1
